Reference for the values: PubChem BioAssay (NCI)

System: RPMI-8226 leukemia
Assay: NCI tumour cell line growth inhibition, 48 h; in the data active = GI50 below about 0.43 µM; inactive = the rest
Outcomes: active, inactive

>  <compound>
CC(=O)/C=C/C1=C(c2csc3ccccc23)c2ccccc2CC1

>  <classLabel>
inactive

$$$$
>  <compound>
C[C@H]1COCCN1c1cc(C2(S(=O)(=O)C3CC3)CC2)nc(-c2ccc(NC(=S)NCCO)cc2)n1

>  <classLabel>
active

$$$$
>  <compound>
O=C(Nc1ccc(F)cc1)Nc1ccc(Br)c(C(F)(F)F)c1

>  <classLabel>
inactive

$$$$
>  <compound>
CC(C)C(=O)c1c(C(F)(F)F)n([O-])c2cc(F)c(F)cc2[n+]1=O

>  <classLabel>
active

$$$$
>  <compound>
CC(C)=CC(=O)N[C@H]1CC[C@]2(C)C3CC[C@]4(C)C(C(C)N(C)C)=CCC4C3CCC2[C@H]1O (some centres undefined)

>  <classLabel>
inactive

$$$$
>  <compound>
O=C(/C=C1\C(=O)N(Cc2ccccc2)c2ccccc21)c1ccc(OCCN2CCCCC2)cc1

>  <classLabel>
inactive

$$$$
>  <compound>
C=C1C(=O)O[C@H]2[C@H]1CC/C(COC(=O)OC/C1=C/CC[C@@]3(C)O[C@H]3[C@H]3OC(=O)[C@@H](CN(C)C)[C@@H]3CC1)=C\CC[C@@]1(C)O[C@@H]21

>  <classLabel>
active

$$$$
>  <compound>
CCCCCCCCCCCCCC[n+]1ccc(C(N)=O)cc1

>  <classLabel>
inactive

$$$$
>  <compound>
Cc1nc2ccccn2c1NC(=O)NNC(=S)Nc1ccc(F)cc1

>  <classLabel>
inactive

$$$$
>  <compound>
CCCCCCCC(=O)SCC/C=C/[C@@H]1CC(=O)NCc2nc(cs2)C2=N[C@@](C)(CS2)C(=O)N[C@@H](C(C)C)C(=O)N1

>  <classLabel>
active

$$$$
>  <compound>
O=C(c1ccccc1)c1c(C(F)(F)F)n([O-])c2cc(C(F)(F)F)ccc2[n+]1=O

>  <classLabel>
inactive

$$$$
>  <compound>
COC(=O)c1c2c(c(C)[n+]([O-])c1C)C(=O)C=C(NCc1cccc(Cl)c1)C2=O

>  <classLabel>
inactive

$$$$
>  <compound>
Clc1ccc2nc(CI)c(CI)nc2c1

>  <classLabel>
inactive

$$$$
>  <compound>
Cc1c(N)nc(C(CC(N)=O)NCC(N)C(N)=O)nc1C(=O)NC(C(=O)NC(C)C(O)C(C)C(=O)NC(C(=O)NCCc1nc(-c2nc(C(=O)NCCCNC(C)c3ccccc3)cs2)cs1)C(C)O)C(OC1OC(CO)C(O)C(O)C1OC1OC(CO)C(O)C(OC(N)=O)C1O)c1cnc[nH]1 (centres undefined)

>  <classLabel>
inactive

$$$$
